experiment: Solubility of citrate of Compound 1 depending on pH; format: physicochemical; conditions: aqueous buffer; pH 3 or higher, particularly pH 3.3 or higher; read-out: solubility
READOUT_NAME: solubility

Challenge: Supply measured solubility of Cc1cccc(C)c1CNc1cc(C(=O)N2CCC2)cn2c(C)c(C)nc12.O=C(O)CC(O)(CC(=O)O)C(=O)O [citrate of Compound 1] in your reply.
Response given: < 1.5 mg/mL
